B1: glmS ribozyme (parent)
chain: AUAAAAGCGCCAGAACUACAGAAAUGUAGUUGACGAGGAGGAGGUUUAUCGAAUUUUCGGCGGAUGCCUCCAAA

variants of: B1; test: self-cleavage kobs at 10000 uM GlcN6P; higher = faster cleavage; RNA array; settings: with glucosamine-6-phosphate
Variants at the floor of the assay were thinned out.
measured.attribute: self-cleavage kobs at 10000 uM GlcN6P (s⁻¹)
Hi! Could you send only the number? It should be in s⁻¹, unit omitted.

## Task May I ask what self-cleavage kobs at 10000 uM GlcN6P has been recorded for AUAAAAGCGCCAGAACUACAGAAAUGUAGUAGACGAGGAGGAGGUUUAUCGAAUUUACGGCGGAUGCCUCCAAA [U31A U57A] ?
## Result 0.000194

## Task Looking for the measured self-cleavage kobs at 10000 uM GlcN6P of AUAAAAGCGCCAGAACUACAGAAAUGUAGUUGACGAGGAGGAGGUGUAUCGAAUUAUCGGCGGAUGCCUCCAAA [U46G U56A] , can you help?
## Result 0.00224

## Task Give its self-cleavage kobs at 10000 uM GlcN6P value. Item: AUAAAAGCGCCAGAACUACAGAAAUGUAGUUGACGAGGAAGAGGUUUAUCGAAUUCUCGGCGGAUGCCUCCAAA [G40A U56C]
## Result 0.000157

## Task I'd like to know its self-cleavage kobs at 10000 uM GlcN6P. The variant in question is AUAAAAGCGCCAGAACUACAGAAAUGUAGUCGUCGAGGAGGAGGUUUAUCGAAUUUUCGGCGGAUGCCUCCAAA [U31C A33U]
## Result 1.73e-05

## Task Using the record for AUAAAAGCGCCAGAACUACAGAAAUGUAGUUGCCGAGGAGGAGGUUCAUCGAAUUUUCGGCGGAUGCCUCCAAA [A33C U47C] , report its self-cleavage kobs at 10000 uM GlcN6P.
## Result 3.37e-05

## Task If you can, please state the reported self-cleavage kobs at 10000 uM GlcN6P value of AUAAAAGCGCCACAACUACAGAAAUGUAGUUGACGAGGAGGAGGUUUAUCGAAUUCUCGGCGGAUGCCUCCAAA [G13C U56C] .
## Result 2.11e-05

## Task Return reported self-cleavage kobs at 10000 uM GlcN6P; argument: AUAAAAGCCCUAGAACUACAGAAAUGUAGUCGACGGGAAGGAGGUUUAUGGAAUUUUCGGCGGAUGCCGGCAAA [G9C C11U U31C A36G G38A C50G U69G C70G]
## Result 0.000818

## Task Which value of self-cleavage kobs at 10000 uM GlcN6P has been reported for AUAAAAGCGCCACAAAUACAGAAAUGUAGUUGACGAGGAGGAGGUUUAUCGAAUUUUCGGCGGAUGCCUCCAAA [G13C C16A] in the records?
## Result 9.42e-05

## Task Please give the measured self-cleavage kobs at 10000 uM GlcN6P for this variant: AUAAAAGCGCCAGAACUACAGAAAUGUAGAUGACGAGGAGGAGGUAUAUCGAAUUUUCGGCGGAUGCCUCCAAA [U30A U46A]
## Result 0.000363

## Task Consider the variant shown here: AUAAAAGCGCCAGAACUACAGAAAUGUAGUUGACGAGGAGGAGGUUUAUCGAGUUUUCGGCGGAUUACUCCAAA [A53G G66U C67A] What is its recorded self-cleavage kobs at 10000 uM GlcN6P?
## Result 0.00186

## Task Please look up its self-cleavage kobs at 10000 uM GlcN6P: AUAAAAGCGCCAGAUCUACAGAAAUGUAGUUGACGAGGAGGAGGUUUAGCGAAUUUUCGGCGGAUGCCUCCAAA [A15U U49G]
## Result 7.95e-05

## Task Which self-cleavage kobs at 10000 uM GlcN6P is reported for this variant? AUAAAAGCGCCAGAGCUACAGAAAUGUAGUUGACGAGGAGGAGGUUUAUCGAAUUUUCGGCGGUUGCCUCCAAA [A15G A64U]
## Result 0.000169

## Task Quick check: self-cleavage kobs at 10000 uM GlcN6P of AUAAAAGCGCCAGAACUACAGAAAUGUAAUUGACGAGGAGGAGGUUUAUCGAUUUUUCGGCGGAUGCCUCCAAA [G29A A53U] ?
## Result 0.00276

## Task Could you share which self-cleavage kobs at 10000 uM GlcN6P value was measured for AUAAAAGCGCCAGAACUACAGAAAUGUAGUUGACGAGGAGGAGGUGUAUCGAUUUUUCGGCGGAUGCCUCCAAA [U46G A53U] ?
## Result 0.00566

## Task Item AUAAAAGCGCCAGAACUACAGAAAUGUAGUGGACGAGGAGGAGGUUCAUCGAAAUUUCGGCGGAUGCCUCCAAA [U31G U47C U54A] has what recorded self-cleavage kobs at 10000 uM GlcN6P?
## Result 0.00049

## Task Reported self-cleavage kobs at 10000 uM GlcN6P, variant AUAAAAGCGCCAGAACUACAGAAAUGUAGUUGACGAAGAGGAGGUUAAUCGAAUUUUCGGCGGAUGCCUCCAAA [G37A U47A] : ____
## Result 0.00229

## Task Item AUAAAAGCUCCAGAACUACAGAAAUGUAGUUGACGAGGUGGAGGUUUAUCGAAUUUUCGGAGGAUGCCUCCAAA [G9U A39U C61A] has what recorded self-cleavage kobs at 10000 uM GlcN6P?
## Result 0.00046

## Task Fill blank: measured self-cleavage kobs at 10000 uM GlcN6P of the variant AUAAAAGCGCCAGAGCUACAGAAAUGUAGUUGACGAGGAGGAGGUUUAUCGAAUUAUCGGCGGAUGCCUCCAAA [A15G U56A] is ____.
## Result 0.00825

## Task Bench note: what self-cleavage kobs at 10000 uM GlcN6P did AUAAAAGCGCCAGAACUACAGAAAUGUAGUUGACGAGGAGGAGGUUUAUCGAAUUGUCAGCGGAUGCCUCCAAA [U56G G59A] show?
## Result 4.3e-05

## Task What self-cleavage kobs at 10000 uM GlcN6P value was documented for this variant, AUAAAAGCGCCAGAACUACAGAAAUGUAGUUGACGAGGAGGAGGUUUAUCGAAGUUUCAGCGGAUGCCUCCAAA [U54G G59A] ?
## Result 8.23e-05
